FYI, the data here is from a protein production outcome set (Wang et al. 2014).

# EXPERIMENT_NOTES: label from the status in PepcDB records;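 further: failed if final PepcDB status was selected cloned or expressed and not failed if soluble or beyond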
MEASURED_QUANTITY: protein production

1. MSLDMKEHPDAEVQKNQVLTLEDWKEKWVTRHISFHQEQGHQLLKKHLDTFLKGQSGLRVFFPLCGKAIEMKWFADRGHTVVGVEISEIGIREFFAEQNLSYTEEPLAEIAGAKVFKSSSGSISLYCCSIFDLPRANIGKFDRIWDRGALVAINPGDHDRYADIILSLLRKEFQYLVAVLSYDPTKHAGPPFYVPSAELKRLFGTKCSMQCLEEVDALEERHKAWGLDYLFEKLYLLTEK	not failed
2. MVETLPALEIGEDERLDLENLATGAFFPVKGFMTREEALSVAHEMRLPTGEVWTIPILLQFREKPRVGPGNTVALLHGGERVALLHVAEAYELDLEALARAVFGTDSETHPGVARLYGKGPYALAGRVEVLKPRPRTPLEKTPEEVRAFFRQRGWRKVVAFQTRNAPHRAHEYLIRLGLELADGVLVHPILGAKKPDDFPTEVIVEAYQALIRDFLPQERVAFFGLATPMRYAGPKEAVFHALVRKNFGATHFLVGRDHAGVGDFYDPYAAHRIFDRLPPLGIEIVKVGAVFHCPLCGGIASERTCPEGHREKRTAISMTKVRALLREGKAPPSELVRPELLPILRRGV	not failed

----------
# EXPERIMENT_NOTES: label from the status in PepcDB records
MEASURED_QUANTITY: protein production

1) MQAVHGRSRKPADPAYQAGLAEELRQSYGRAGLIELYGRFATGDGVVDSLMRKAIWQAITRRCGEGLQVASGAGFKHPETFEIGDGVFIGAQAYIQGRYDGTCVIGDNVWIGPMAYFDARDLVIEDSVGWGPGAKVLGSTHTALPIDVPIIRTDLEIRPVRICAEADIGTNATILPGVTIGKGAIVGAGAVVVSDVEPFSVAAGVPAKFIRWRSENDPMTNMSREGRS	failed
2) MINDIKILGVGGSPRKNGNTDVLLDSFLKGAESAGVETKKVLLRDYSIEPCIGCERCRKTGTCTRFHDGMSLLYPEIEAAKGLTLGSPTYNYNVTALMKAFIDRLYPYYNFTNVRPRRYSSKLAGQGRKAIVFSVCEQLEIEEMGFTLGALGMPLEALGYEIVEKFPVTGYFDRGAVSRDEELLRKTFEAGKKMAEALHLEHHHHHH	failed
3) MMESGAGFVAMEERISPGSFFQYPLSGFRASPNRSPCPPSDRERYLTELLQERQKLGPFLQVMPNCCRLLNHEIRRVSSFPDLDRYEHGSPFRSLGQPTNGKLDLEGWSMMQAEVSHC	failed

----------
# EXPERIMENT_NOTES: label from the status in PepcDB records
MEASURED_QUANTITY: protein production

Example sequences with recorded protein production:
1. PDQCKPPQVTCRSATCAQVNWEVPLSNGTDVTEYRLEWGGVEGSMQICYCGPGLSYEIKGLSPATTYYCRVQALSVVGAGPFSEVVACVTPPS	not failed
2. MVWLAVFLAVLGAFFLAIGAQRQGSAVKADTGGLALSSNGFLRLLRNPRWMLGLLFLALGMVMNAVALVSAPLTVVQPIGAIALVITTVVNAKDQGLSINRATVVAISACVTGSALFVLLAVNVTQENHHVNTEDELTIVLLLALAVGIFGTLAVVFRHRMSAFVYILGAGVLFGFVAVLTRIIGKHLLDPNGLFLLNVQWYTLIAIVAAGGLGSWFVQSAYSGGPPDLVIAGLTVIDPMVGIAIGIVILGELRPDVHAVMAIAMAAAATLAIVGVIALSRHHPEVTKRKKDAKAAASRKA	failed
3. LVVSEARFRAAIDAVQGVLWTNNASGKMVGEQPGWSALTGQIREEYEGVGWTKVVHPDDVEPTLSAWLAAVAEKRTFEFEHRVRRHDGVWRDCLIRAVPLIGDNGEIREWVGVHTDISEQKAAAEK	failed
4. QSLELGTMQPSFTSVTGKGGVKVIDGSSVKFGRFDGAEPHCVGLTDLVTEQDGSSMAAGFMQWDNAFFPWTLNYDEIDMVLEGELHVRHEGETMIAKAGDVMFIPKGSSIEFGTPTSVRFLYVAWPANWQSV	not failed
5. LGRITQHIAIKQDITEQVHRFNQLKISEERYRNLMNAVADGIFIHNLQGAFLEVNEAACLSLNYSREELINSYVWDIEVGFSQESLNQLWENVQKGPINTEGMHRRKDGTTFPVDVRLAVFNATGEKLVLAIVRDI	failed

What does the data say about its protein production? Entry: MSIRPATHAGSWYSNRAQELSQQLHTYLIKSTLKGPIHNARIIICPHAGYRYCGPTMAYSYASLDLNRNVKRIFILGPSHHIYFKNQILVSAFSELETPLGNLKVDTDLCKTLIQKEYPENGKKLFKPMDHDTDMAEHSLEMQLPMLVETLKWREISLDTVKVFPMMVSHNSVDVDRCIGNILSEYIKDPNNLFIVSSDFCHWGRRFQYTGYVGSKEELNDAIQEETEVEMLTARSKLSHHQVPIWQSIEIMDRYAMKTLSDTPNGERYDAWKQYLEITGNTICGEKPISVILSALSKIRDAGPSGIKFQWPNYSQSSHVTSIDDSSVSYASGYVTIG
failed

Give its protein production value. Item: NRLPDAVVTVYPTFNSLQMLAHALRMPYHDMRIVSLTGRPWHEFDRALIERAEKIGILTDHEHTPSAIAMRMLDYGYEDYTMSVGTRMGNPQEQCLDTFSLREAADRDFERPNCVILSATRPFVCSRAPLGLSESAFMPLNGRTKMITKMPFRLVSLSCLELHRASSFWDIGFCTGSVSIEAKLNFPHLHITAFEIRPEGAELMPVNSRRFGAPGIAYRIGDFMEEDISSLAPPDAVFIGGHGGRLVEMIAKVHSVMTKGGLLVFNSVSEESRHLFLTGIEACGMELLSSIRLTADGNNPIDILQARKKE
not failed

Look up protein production: MVSFDHATLGYITFVLMNFSMLSGAFIFLSKKKQHWIKVHLLVSILTYIFMVWTIWVVR
failed

# query: protein production of entry MQITIKVLKGKDCTIEVAPTSTILEVKHQIEAELQISATNQKLLLLGRPLNNEQTIASYPNIKEGTKLNLVVIKPCLRDSILRGFRKHYSEPLAERMTNEFMADFERKINEQSLDDLERLADSIVNRAAT
failed
